Target chain: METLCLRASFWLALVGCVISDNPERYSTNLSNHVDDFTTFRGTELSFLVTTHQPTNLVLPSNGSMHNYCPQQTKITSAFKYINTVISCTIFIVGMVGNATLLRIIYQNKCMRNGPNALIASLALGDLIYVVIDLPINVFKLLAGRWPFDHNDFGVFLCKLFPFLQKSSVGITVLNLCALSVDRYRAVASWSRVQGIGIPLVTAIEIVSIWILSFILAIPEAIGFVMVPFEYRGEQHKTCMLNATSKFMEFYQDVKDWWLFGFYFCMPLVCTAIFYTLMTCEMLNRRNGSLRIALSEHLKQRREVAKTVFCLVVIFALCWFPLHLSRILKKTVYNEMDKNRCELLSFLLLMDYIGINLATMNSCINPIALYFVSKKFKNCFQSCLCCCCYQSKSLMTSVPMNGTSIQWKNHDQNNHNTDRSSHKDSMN
pIC50: −log10 of the molar value.
We begin with pIC50 values for the protein given by its sequence, as collected from the published literature.
measured_metric: pIC50

Record excerpt, results attached:
[
  {
    "molecule": "Cc1oc([C@@H](Cc2cn(C)c3ccccc23)NC(=O)[C@H](CC(C)C)N(C)C(=O)NC2CCCCC2)nc1C(=O)O",
    "system_under_test": "the protein given by its sequence",
    "pIC50": 6.35
  },
  {
    "molecule": "COc1ccccc1NC(=O)c1sccc1S(=O)(=O)Nc1onc(C)c1Br",
    "system_under_test": "the protein given by its sequence",
    "pIC50": 6.88
  },
  {
    "molecule": "Cc1cc(C)c(NC(=O)c2sccc2S(=O)(=O)Nc2onc(C)c2Cl)c(C(=O)C(C)C)c1",
    "system_under_test": "the protein given by its sequence",
    "pIC50": 9.96
  },
  {
    "molecule": "Cc1noc(NS(=O)(=O)c2ccsc2C(=O)Nc2cc3c(cc2CCCO)OCO3)c1Cl",
    "system_under_test": "the protein given by its sequence",
    "pIC50": 8.22
  },
  {
    "molecule": "COc1ccc([C@H]2[C@H](C(=O)O)[C@@H](c3ccc4c(c3)OCO4)CN2CC(=O)NC(c2ccccc2)C(C)C)cc1 (stereo partly specified)",
    "system_under_test": "the protein given by its sequence",
    "pIC50": 9.15
  }
]

(I) CCc1cccc(CC)c1NC(=O)CN1C[C@H](c2ccc3c(c2)OCO3)[C@@H](C(=O)O)[C@@H]1c1ccc(CCOC)cc1
(II) CCCc1cccc(CC)c1NC(=O)CN1C[C@H](c2ccc3c(c2)OCO3)[C@@H](C(=O)O)[C@@H]1c1ccc(OC)cc1
Given the two records I and II , choose the one whose pIC50 value is lower. To answer, give the label that identifies your chosen option. I

(1) CCCCCc1ccc2c(n1)[C@@H](c1ccc(OC)cc1)[C@H](C(=O)O)[C@H]2c1ccc2c(c1)OCO2
(2) COc1ccc([C@H]2[C@H](C(=O)O)[C@@H](c3ccc4c(c3)OCO4)CN2CC(=O)NC(CC(C)C)c2ccccc2)cc1 (stereo partly specified)
Given the two records 1 and 2 , choose the one whose pIC50 value is lower. To answer, give the label that identifies your chosen option. 2
(2: 7.87, 1: 8.72)

(A) Cc1cc(C)c(NC(=O)c2sccc2S(=O)(=O)Nc2onc(C)c2Cl)c(C#N)c1C
(B) CC(C)OCCOc1ccc([C@H]2[C@H](C(=O)O)[C@@H](c3ccc4c(c3)OCO4)CN2CC(=O)NC(c2ccccc2)C(C)(C)C)cc1 (stereo partly specified)
Given the two records A and B , choose the one whose pIC50 value is lower. To answer, give the label that identifies your chosen option. B
